The entries below come with measured Papp values attached.
Assay: in vitro
Conditions: PAMPA

# molecule, Papp
rows = [
    ("CCN(Cc1ccccc1)S(=O)(=O)c1ccc(C)cc1", "5.38 ×10⁻⁶ cm/s"),
    ("CCN(Cc1ccccc1)S(=O)(=O)c1cc(F)ccc1N1CCCC1", "0.34 ×10⁻⁶ cm/s"),
    ("CCN(Cc1ccccc1)S(=O)(=O)c1ccc(NC(C)=O)cc1", "13.6 ×10⁻⁶ cm/s"),
    ("CC[C@H](Cc1ccccc1)S(=O)(=O)c1ccccc1OC", "19.8 ×10⁻⁶ cm/s"),
    ("O=S(=O)(NCc1ccccc1)c1ccccc1", "21.6 ×10⁻⁶ cm/s"),
    ("COc1ccc(OC)c(S(=O)(=O)NCc2ccccc2)c1", "16.8 ×10⁻⁶ cm/s"),
    ("CCN(Cc1ccccc1)S(=O)(=O)c1ccccc1OC", "18.5 ×10⁻⁶ cm/s"),
    ("COc1ccc(Cl)cc1S(=O)(=O)N(CCO)Cc1ccccc1", "20.1 ×10⁻⁶ cm/s"),
    ("CCCCC(=O)Nc1cccnc1S(=O)(=O)CCc1ccccc1", "18.9 ×10⁻⁶ cm/s"),
    ("CCN(Cc1ccccc1)S(=O)(=O)c1ccccc1OC(F)(F)F", "1.18 ×10⁻⁶ cm/s"),
    ("CCN(Cc1ccccc1)S(=O)(=O)c1cc(OC)ccc1OC", "11.9 ×10⁻⁶ cm/s"),
    ("CCC(Cc1ccccc1)Sc1nc(C)cc(C)c1C#N (stereo not drawn)", "0.19 ×10⁻⁶ cm/s"),
]

====

Experiment: in vitro
Conditions: human, microsomes, pH 7.4, HLM CLint (uL/min/mg), human liver microsomes

# molecule, measurement-unit, microsomal CLint at 0.5 μM
records = [
    ("COc1ccc(C#N)cc1S(=O)(=O)N(Cc1ccc(F)cc1)C1CCOCC1", "µL/min/mg", 194),
    ("CCN(Cc1ccc(F)cc1)S(=O)(=O)c1cc(C(=O)N2CCOCC2)ccc1OC", "µL/min/mg", 142),
    ("COc1ccc(C(=O)N2CCOCC2)cc1S(=O)(=O)N(Cc1ccccc1)Cc1cnc(C(F)(F)F)nc1", "µL/min/mg", 76),
    ("O=S1(=O)NCNc2cc(Cl)c(S(=O)(=O)N(Cc3ccccc3)Cc3ccccc3)cc21", "µL/min/mg", 63),
    ("COc1ccc(C(=O)N(C)CCO)cc1S(=O)(=O)N(Cc1ccc(F)cc1)Cc1ccc(F)cc1", "µL/min/mg", 498),
    ("Nc1cc(Cl)c(S(N)(=O)=O)cc1S(=O)(=O)N(Cc1ccccc1)Cc1ccccc1", "µL/min/mg", 253),
    ("N#Cc1ccc(O)c(S(=O)(=O)N(Cc2ccc(F)cc2)Cc2ccc(F)cc2)c1", "µL/min/mg", 33),
    ("CNC(=O)c1ccc(OC)c(S(=O)(=O)N(CCOC)Cc2ccccc2)c1", "µL/min/mg", 23),
    ("O=S(=O)(c1ccccn1)N(Cc1ccccc1)Cc1ccccc1", "µL/min/mg", 218),
    ("COc1ccc(C#N)cc1S(=O)(=O)N(Cc1ccccc1)Cc1cnc(C(F)(F)F)nc1", "µL/min/mg", 80),
    ("COc1ccc(OC)c(S(=O)(=O)N(Cc2ccc(F)cc2)Cc2ccnn2C)c1", "µL/min/mg", 207),
    ("COCCN(Cc1ccccc1)S(=O)(=O)c1cc(C(=O)NC2COC2)ccc1OC", "µL/min/mg", 39),
    ("COc1ccc(C(=O)N2CCOCC2)cc1S(=O)(=O)N(Cc1ccccc1)CC(C)(C)C", "µL/min/mg", 1140),
    ("COc1ccc(C(=O)N2CCOCC2)cc1S(=O)(=O)N(Cc1ccc(C(F)(F)F)nc1)C(C)c1ccc(F)cc1 (centres unmarked)", "µL/min/mg", 267),
    ("COc1ccc(C(=O)N2CCOCC2)cc1S(=O)(=O)N(Cc1ccc(C(F)(F)F)nc1)CC(C)(C)C", "µL/min/mg", 127),
    ("COCCN(Cc1ccc(F)cc1)S(=O)(=O)c1cc(C(=O)N2CCOCC2)ccc1OC", "µL/min/mg", 28),
    ("COc1ccc(C(=O)NC2COC2)cc1S(=O)(=O)N(Cc1ccc(F)cc1)Cc1ccc(F)cc1", "µL/min/mg", 178),
]
